assay: Test for pH effect on de-coloration: absorbance in aqueous pH buffer solutions; type: physicochemical; conditions: pH value when approximately half of the colorant is converted to its colorless form
endpoint name: pKa
Numbers only.

Ask | I would be grateful if you could share the reported pKa for CN(C)c1ccc(C(=C2C=CC(=[N+](C)C)C=C2)c2ccccc2)cc1 [Comp. Colorant 4, Basic Green 4, reference compound] .
Reply | 7

The reported numbers originate from patent US20080113868A1.
